compounds and their reported LD50
# Protocol Notes: in vivo
# Condition Summary: rat, po
Measure: LD50

Structure As Smiles: CSN(C)C(=O)Oc1cccc2c1OC(C)(C)C2
Reported Measurement: 5 to 25 mg/kg
--
Structure As Smiles: CN(Sc1ccc(Br)cc1)C(=O)Oc1cccc2c1OC(C)(C)C2
Reported Measurement: 25 to 125 mg/kg
--
Structure As Smiles: CCSN(C)C(=O)Oc1cccc2c1OC(C)(C)C2
Reported Measurement: 25 to 125 mg/kg
--
Structure As Smiles: CN(Sc1ccccc1)C(=O)Oc1cccc2c1OC(C)(C)C2
Reported Measurement: 25 to 125 mg/kg
--
Structure As Smiles: CN(SC(Cl)(Cl)Cl)C(=O)Oc1cccc2c1OC(C)(C)C2
Reported Measurement: 125 to 250 mg/kg
--
Structure As Smiles: CN(Sc1ccc(Cl)c(Cl)c1)C(=O)Oc1cccc2c1OC(C)(C)C2
Reported Measurement: 25 to 125 mg/kg

---

As shown below, each of these molecules has a reported mortality at 0.64 ppm value.
# Tested on: Aphids (Aphis gossypii Glover)
# Protocol Notes: whole plant or invertebrate
# Condition Summary: in Cucumis sativus, 24 h, read-out: Aphids, mortality, 0.64 ppm
Measure: mortality at 0.64 ppm (%)

Molecule: CN(Sc1ccccc1)C(=O)Oc1cccc2c1OC(C)(C)C2 [Compound 9]
System Name: Aphids (Aphis gossypii Glover)
Reported Measurement: 98
--
Molecule: CN(SC(Cl)(Cl)Cl)C(=O)Oc1cccc2c1OC(C)(C)C2 [Compound 1]
System Name: Aphids (Aphis gossypii Glover)
Reported Measurement: 91
--
Molecule: CN(Sc1cc(Cl)ccc1Cl)C(=O)Oc1cccc2c1OC(C)(C)C2 [Compound 12]
System Name: Aphids (Aphis gossypii Glover)
Reported Measurement: 61
--
Molecule: Cc1ccc(SN(C)C(=O)Oc2cccc3c2OC(C)(C)C3)cc1 [Compound 10]
System Name: Aphids (Aphis gossypii Glover)
Reported Measurement: 96
--
Molecule: CCCCSN(C)C(=O)Oc1cccc2c1OC(C)(C)C2 [Compound 6]
System Name: Aphids (Aphis gossypii Glover)
Reported Measurement: 97
--
Molecule: CN(Sc1ccc(Cl)c(Cl)c1)C(=O)Oc1cccc2c1OC(C)(C)C2 [Compound 11]
System Name: Aphids (Aphis gossypii Glover)
Reported Measurement: 97
--
Molecule: CN(Sc1ccc([N+](=O)[O-])cc1)C(=O)Oc1cccc2c1OC(C)(C)C2 [Compound 15]
System Name: Aphids (Aphis gossypii Glover)
Reported Measurement: 96
--
Molecule: CSN(C)C(=O)Oc1cccc2c1OC(C)(C)C2 [Compound 3]
System Name: Aphids (Aphis gossypii Glover)
Reported Measurement: 97
--
Molecule: CN(Sc1ccc(Br)cc1)C(=O)Oc1cccc2c1OC(C)(C)C2 [Compound 13]
System Name: Aphids (Aphis gossypii Glover)
Reported Measurement: 98
--
Molecule: CN(Sc1ccc(F)cc1)C(=O)Oc1cccc2c1OC(C)(C)C2 [Compound 14]
System Name: Aphids (Aphis gossypii Glover)
Reported Measurement: 92
--
Molecule: CN(SC(Cl)=C(Cl)Cl)C(=O)Oc1cccc2c1OC(C)(C)C2 [Compound 5]
System Name: Aphids (Aphis gossypii Glover)
Reported Measurement: 100
--
Molecule: CCSN(C)C(=O)Oc1cccc2c1OC(C)(C)C2 [Compound 7]
System Name: Aphids (Aphis gossypii Glover)
Reported Measurement: 92
--
Molecule: CN(Sc1ccc(Cl)cc1)C(=O)Oc1cccc2c1OC(C)(C)C2 [Compound 4]
System Name: Aphids (Aphis gossypii Glover)
Reported Measurement: 97

Data provenance is patent US4013774A.
